TARGET OR SYSTEM: human cathepsin S (CatS) (Homo sapiens, UniProt P25774)
Construct: made in house; host or cells: baculovirus system (insect cells)
Sequence (P25774 115-331): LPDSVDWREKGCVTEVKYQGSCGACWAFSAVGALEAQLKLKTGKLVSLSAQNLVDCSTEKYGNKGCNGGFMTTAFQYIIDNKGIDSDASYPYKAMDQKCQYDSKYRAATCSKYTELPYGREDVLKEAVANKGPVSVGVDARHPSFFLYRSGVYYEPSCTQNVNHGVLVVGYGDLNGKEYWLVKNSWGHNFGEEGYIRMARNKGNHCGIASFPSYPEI
EXPERIMENT DESCRIPTION: Recombinant human cathepsin S (CatS) fluorogenic substrate inhibition assay
Type: biochemical
TEST SETTINGS: recombinant human CatS, 10 μM Z-Valine-Valine-Arginine-AMC, pH 5.0; average of results obtained; read-out: CatS IC50
Method: Recombinant human cathepsin S (CatS) was expressed in the baculovirus system and purified in one step with a thiopropyl-sepharose column. […] The assay is run in 150 mM sodium acetate pH 5.0 containing 1.5 mM DTT and 150 mM NaCl. […] Measurements are taken every min for 20 min. The rate is calculated from the slope of the increase in fluorescence and the percent inhibition is calculated from this.
VALUE KIND: IC50
Number first, unit second.

Examples with answers:
{"MOLECULE": "CS(=O)(=O)N1CCc2c(c(-c3ccc(C(F)(F)F)c(CNC(=O)c4ccncc4)c3)nn2CC(O)CN2CCC(N3CCCC3=O)CC2)C1 (stereo not drawn)", "VALUE KIND": "IC50", "MEASUREMENT": "240 nM"}
{"MOLECULE": "CN(C)c1ccc2c(n1)n(C1CCN(CC(O)Cn3nc(-c4ccc(Cl)c(CNC(=O)c5ccc(F)cc5)c4)c4c3CCN(S(C)(=O)=O)C4)CC1)c(=O)n2C (stereo not drawn)", "VALUE KIND": "IC50", "MEASUREMENT": "10 nM"}
{"MOLECULE": "CC(C)=CC(=O)NCc1cc(-c2nn(CC(O)CN3CCN(c4ncccc4Cl)CC3)c3c2CN(S(C)(=O)=O)CC3)ccc1C(F)(F)F (stereo not drawn)", "VALUE KIND": "IC50", "MEASUREMENT": "10 nM"}
{"MOLECULE": "CC(C)=CC(=O)NCc1cc(-c2nn(CC(O)CN3CCC(O)(c4ccccn4)CC3)c3c2CN(S(C)(=O)=O)CC3)ccc1C(F)(F)F (stereo not drawn)", "VALUE KIND": "IC50", "MEASUREMENT": "10 nM"}
{"MOLECULE": "CC(C)=CC(=O)NCc1cc(-c2nn(CC(O)CN3CCC(N4CCOCC4)CC3)c3c2CN(S(C)(=O)=O)CC3)ccc1C(F)(F)F (stereo not drawn)", "VALUE KIND": "IC50", "MEASUREMENT": "40 nM"}

q: Can you look up the measured IC50 of CC(C)CC(=O)NCc1cc(-c2nn(CC(O)CN3CCC(O)(c4ccc(Br)cc4)CC3)c3c2CN(S(C)(=O)=O)CC3)ccc1C(F)(F)F (stereo not drawn) for me?
a: 60 nM

----------
TARGET OR SYSTEM: human cathepsin S (CatS) (Homo sapiens)
Construct: made in house; host or cells: baculovirus system (insect cells)
EXPERIMENT DESCRIPTION: Recombinant human cathepsin S (CatS) fluorogenic substrate inhibition assay
Assay type: biochemical
TEST SETTINGS: recombinant human CatS, 10 μM Z-Valine-Valine-Arginine-AMC, pH 5.0; average of results obtained; read-out: CatS IC50
VALUE KIND: log10(IC50) (log10 of the value in µM)
Short version: log10 scale, IC50, µM.

Consider the following illustrative entries.
{"COMPOUND": "CC(C)CC(=O)NCc1cc(-c2nn(CC(O)CN3CCC(C(=O)N4CCOCC4)CC3)c3c2CN(S(C)(=O)=O)CC3)ccc1C(F)(F)F (stereo not drawn)", "log10(IC50)": -0.92}
{"COMPOUND": "CC(C)=CC(=O)NCc1cc(-c2nn(CC(O)CN3CCC(c4c[nH]c5ncccc45)CC3)c3c2CN(S(C)(=O)=O)CC3)ccc1C(F)(F)F (stereo not drawn)", "log10(IC50)": -1.70}

q: Field: log10(IC50) (human cathepsin S (CatS) (Homo sapiens)). Entry: CS(=O)(=O)N1CCc2c(c(-c3ccc(C(F)(F)F)c(CNC(=O)c4ccc(F)cc4O)c3)nn2CC(O)CN2CCC(N3CCCC3=O)CC2)C1 (stereo not drawn)
a: -1.22

q: Recall the recorded log10(IC50) for CN(C)CC(=O)NCc1cc(-c2nn(CCCN3CCC(N4CCCC4=O)CC3)c3c2CN(S(C)(=O)=O)CC3)ccc1C(F)(F)F with human cathepsin S (CatS) (Homo sapiens) and state it.
a: 0.19

q: I'm curious: which log10(IC50) was measured for CS(=O)(=O)N1CCc2c(c(-c3ccc(C(F)(F)F)c(CNCc4ccc(F)cc4)c3)nn2CCCN2CCC(C3CCCCC3)CC2)C1 tested on human cathepsin S (CatS) (Homo sapiens)?
a: -1.70

q: Entry CS(=O)(=O)N1CCc2c(c(-c3ccc(Cl)c(CNc4ccccc4)c3)nn2CCCN2CCC(N3CCCC3=O)CC2)C1 , system human cathepsin S (CatS) (Homo sapiens): what log10(IC50) was measured?
a: 0.35

----------
TARGET OR SYSTEM: human cathepsin S (CatS) (Homo sapiens, UniProt P25774)
Construct: made in house; host or cells: baculovirus system (insect cells)
EXPERIMENT DESCRIPTION: Recombinant human cathepsin S (CatS) fluorogenic substrate inhibition assay
Type: biochemical
TEST SETTINGS: recombinant human CatS, 10 μM Z-Valine-Valine-Arginine-AMC, pH 5.0; average of results obtained; read-out: CatS IC50
VALUE KIND: log10 IC50 (log10 of the value in nM)
Please be aware that the numbers have been log10-transformed from IC50 in nM.

{"COMPOUND": "CS(=O)(=O)N1CCc2c(c(-c3ccc(C(F)(F)F)c(CNC(=O)c4ccc5nccnc5c4)c3)nn2CC(O)CN2CCC(N3CCCC3=O)CC2)C1 (stereo not drawn)", "log10 IC50": 2.69}
{"COMPOUND": "CN1CCN(CC(=O)NCc2cc(-c3nn(CCCN4CCC(N5CCCC5=O)CC4)c4c3CN(S(C)(=O)=O)CC4)ccc2C(F)(F)F)CC1", "log10 IC50": 3.57}
{"COMPOUND": "CC(C)CC(=O)NCc1cc(-c2nn(CC(O)CN3CCC(C(=O)N4CCCC4)CC3)c3c2CN(S(C)(=O)=O)CC3)ccc1C(F)(F)F (stereo not drawn)", "log10 IC50": 1.78}
{"COMPOUND": "CS(=O)(=O)N1CCc2c(c(-c3ccc(C(F)(F)F)c(CNC(=O)c4ccc(C(F)(F)F)nc4)c3)nn2CC(O)CN2CCC(N3CCCC3=O)CC2)C1 (stereo not drawn)", "log10 IC50": 1.85}
{"COMPOUND": "CS(=O)(=O)N1CCc2c(c(-c3ccc(C(F)(F)F)c(CNC(=O)c4cscn4)c3)nn2CC(O)CN2CCC(N3CCCC3=O)CC2)C1 (stereo not drawn)", "log10 IC50": 2.00}

Attention now turns to another entry.
q: Fill in: log10 IC50 of CS(=O)(=O)N1CCc2c(c(-c3ccc(C(F)(F)F)c(CNC(=O)CN4CCCCC4)c3)nn2CCCN2CCC(N3CCCC3=O)CC2)C1 is ___
a: 2.61

----------
TARGET OR SYSTEM: human cathepsin S (CatS) (Homo sapiens)
Construct: made in house; host or cells: baculovirus system (insect cells)
EXPERIMENT DESCRIPTION: Recombinant human cathepsin S (CatS) fluorogenic substrate inhibition assay
Assay type: biochemical
TEST SETTINGS: recombinant human CatS, 10 μM Z-Valine-Valine-Arginine-AMC, pH 5.0; average of results obtained; read-out: CatS IC50
VALUE KIND: IC50 (nM)
Express it in nM; write the number only.

Would you please look over these solved cases?
{"MOLECULE": "CS(=O)(=O)N1CCc2c(c(-c3ccc(C(F)(F)F)c(CNC(=O)/C=C/c4ccccc4)c3)nn2CC(O)CN2CCC(N3CCCC3=O)CC2)C1 (stereo not drawn)", "TARGET OR SYSTEM": "human cathepsin S (CatS) (Homo sapiens)", "DISPLAY UNIT": "nM", "MEASUREMENT": 320}
{"MOLECULE": "CS(=O)(=O)N1CCc2c(c(-c3ccc(C(F)(F)F)c(CNC(=O)CC4CCCCC4)c3)nn2CCCN2CCC(N3CCCC3=O)CC2)C1", "TARGET OR SYSTEM": "human cathepsin S (CatS) (Homo sapiens)", "DISPLAY UNIT": "nM", "MEASUREMENT": 100}
{"MOLECULE": "CS(=O)(=O)N1CCc2c(c(-c3ccc(C(F)(F)F)c(CNC(=O)c4ccc5[nH]c(=O)[nH]c5c4)c3)nn2CC(O)CN2CCC(N3CCCC3=O)CC2)C1 (stereo not drawn)", "TARGET OR SYSTEM": "human cathepsin S (CatS) (Homo sapiens)", "DISPLAY UNIT": "nM", "MEASUREMENT": 140}
{"MOLECULE": "CC(C)CC(=O)NCc1cc(-c2nn(CC(O)CN3CCC(c4nnn[nH]4)CC3)c3c2CN(S(C)(=O)=O)CC3)ccc1C(F)(F)F (stereo not drawn)", "TARGET OR SYSTEM": "human cathepsin S (CatS) (Homo sapiens)", "DISPLAY UNIT": "nM", "MEASUREMENT": 140}

q: What value of measured IC50 is listed for CS(=O)(=O)N1CCc2c(c(-c3ccc(C(F)(F)F)c(CNC(=O)CC4CCCC4)c3)nn2CCCN2CCC(N3CCCC3=O)CC2)C1 ?
a: 80

q: Which IC50 reading was recorded for the molecule CCc1ccc(C(=O)Nc2cc(-c3nn(CCCN4CCN(c5cccc(Cl)c5)CC4)c4c3CN(S(C)(=O)=O)CC4)ccc2Cl)cc1 ?
a: 780
